- Tested on: glycogen synthase kinase-3 (GSK3A per assay name; protocol says GSK3B)
- procedure_details: compounds binding glycogen synthase kinase-3 – biochemical, small-molecule microarray, 635 nm fluorescence, GSK3A, primary screen (AID 1103); note: the record names both GSK3A and GSK3B
- setup_conditions: fluorescence 635 nm, higher = more signal
property: composite z-score
Give bare numbers.

Would you please look over these solved cases?
COc1ccc([Si](C)(C)[C@@H]2[C@@H](CCO)O[C@]3(C(=O)N(Cc4cccc(N5C(=O)COc6ccccc65)c4)c4ccccc43)[C@H]2C)cc1 :: -0.233
C=C(/C(=C/C[C@@H](OC(=O)c1ccncc1)c1cccc(OCCO)c1)c1cc(C(=O)OC)ccc1OC)C(C)C :: 0.366
COC(=O)[C@@]1(Cc2ccccc2N=[N+]=[N-])N=C(c2ccc(OCCCO)cc2)O[C@H]1c1ccccc1 :: -0.253
C=C(COC)C(=O)CC[C@H](OC(=O)c1ccccc1-c1ccccc1C(=O)O)c1ccc(OCCO)cc1 :: 0.667

Entry `CN(C)CCCC[C@@H]1NC(=O)[C@H]2C[C@@H](C(=O)NCCCCCCNC(=O)CS)[C@@H](c3ccc(O)cc3)N2C1=O` has what composite z-score?
-0.323

* * *

Give measured composite z-score for each item. Keep answers brief.
- procedure_details: probe aDKK1 binding to arrayed compounds – biochemical, biotinylated probe, 635/667 nm fluorescence, primary screen (AID 1099);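 note: score merges 667nm spot fluorescence with signal to noise across triplicate slides; reference of the scale not given here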
- setup_conditions: small-molecule microarray, higher = more signal
Numbers only.

O=C1O[C@H](c2ccccc2)[C@H](c2ccccc2)N2[C@H]1[C@@H](C(=O)NC[C@H](O)c1ccccc1)[C@]1(C(=O)Nc3ccccc31)[C@H]2c1ccccc1OCCO :: -0.0915
C[C@@]1([C@@H](NC(=O)c2cccs2)c2ccc(-c3ccccc3)cc2)C[C@H]1C1CCCCC1 :: -0.336
Cc1ccccc1C(O)C1C=CC2C(=O)N(Cc3ccccc3)C(=O)C2N1n1cnnc1 (stereo not given) :: 0.363
COC(=O)[C@@]1(Cc2ccccc2)[C@H]2c3cc(C(=O)N(C)C)n(Cc4ccccn4)c3C[C@H]2CN1C(=O)c1ccccc1 :: 1.44
O=C1C[C@@](C(=O)NCc2ccccc2)(c2ccc([N+](=O)[O-])cc2)[C@@H](c2ccc(CO)cc2I)N1C1CCCCC1 :: 1.78

Can you give me composite z-score for all of these, one by one?
1. O=C1O[C@H](c2ccccc2)[C@H](c2ccccc2)N2[C@H]1[C@@H](C(=O)N1CCCCCCC1)[C@]1(C(=O)Nc3ccc(C#CCCO)cc31)[C@H]2c1ccc(OCCO)cc1
2. COCCCNC(=O)[C@]1(Cc2ccccc2CN=[N+]=[N-])N=C(c2ccc(OCCCO)cc2)O[C@@H]1c1ccccc1CN=[N+]=[N-]
3. CC(=O)NCCCC[C@@H]1NC(=O)[C@H]2C[C@@H](C(=O)NCCCCCN)[C@@H](c3cccc(OCCO)c3)N2C1=O
4. CN1C(=O)C2C=CC(C(O)COCc3ccccc3)N(Nc3ccccc3)C2C1=O (stereo not given)
5. COCCOC(=O)N1C(=O)[C@@]2(c3cc(C#CCC(C(=O)OC)C(=O)OC)ccc31)[C@H](c1ccc(OCCO)cc1)N1[C@H](c3ccccc3)[C@H](c3ccccc3)OC(=O)[C@H]1[C@@H]2C(N)=O
6. C=C(C(=O)CC[C@H](OC(=O)c1cccnc1)c1ccc(OCCO)cc1)C(C)C

1: 2.78; 2: 1.35; 3: -0.0159; 4: -0.109; 5: 0.0751; 6: -0.175

* * *

- procedure_details: binders from COS7 lysate, DM2A8 probe, primary screen, torsin A project, cell lysate, small-molecule microarray, fluorescence 635/667 (AID 1065)
- setup_conditions: higher = more signal, COS7 lysate expressing mutant human TOR1A
property: composite z-score
One number for each entry.

Would you please look over these solved cases?
C=C(/C(=C/C[C@@H](OC(C)=O)c1ccccc1OCCO)c1cnc2ccccc2c1)C(C)C :: 1.23
COc1ccccc1CN1C(=O)c2ccccc2[C@@H](C(=O)NCC(C)C)[C@@H]1c1ccc(CO)cc1 :: -0.117
Cc1ccccc1C(O)C1C=CC2C(=O)N(Cc3ccccc3)C(=O)C2N1n1cnnc1 (configuration not stated) :: 0.34
CCCC=C(CCC)[C@@H](NS(=O)(=O)c1ccccc1)c1ccc(C(F)(F)F)cc1 :: 0.322
Cc1ccc(S[C@]2(C(=O)NCc3ccccc3)CC(=O)N(C3Cc4ccccc4C3)[C@@H]2c2ccc(CO)cc2I)cc1 :: 0.247

Can you give me composite z-score for all of these, one by one?
1. COC(=O)C(CC#Cc1ccc2c(c1)[C@]1(C(=O)N2)[C@H](c2ccc(OCCO)cc2)N2[C@H](c3ccccc3)[C@H](c3ccccc3)OC(=O)[C@H]2[C@@H]1C(=O)O)C(=O)OC
2. COCCOC(=O)N1C(=O)[C@@]2(c3ccccc31)[C@H](c1ccccc1OCCO)N1[C@H](c3ccccc3)[C@H](c3ccccc3)OC(=O)[C@H]1[C@@H]2C(=O)N1CCc2cc(OC)c(OC)cc2C1

1: 0.831; 2: 0.124

* * *

- subject_of_test: Left-right determination factor 2 (Homo sapiens) (UniProt O00292)
- Sequence (O00292 whole entry, looked up): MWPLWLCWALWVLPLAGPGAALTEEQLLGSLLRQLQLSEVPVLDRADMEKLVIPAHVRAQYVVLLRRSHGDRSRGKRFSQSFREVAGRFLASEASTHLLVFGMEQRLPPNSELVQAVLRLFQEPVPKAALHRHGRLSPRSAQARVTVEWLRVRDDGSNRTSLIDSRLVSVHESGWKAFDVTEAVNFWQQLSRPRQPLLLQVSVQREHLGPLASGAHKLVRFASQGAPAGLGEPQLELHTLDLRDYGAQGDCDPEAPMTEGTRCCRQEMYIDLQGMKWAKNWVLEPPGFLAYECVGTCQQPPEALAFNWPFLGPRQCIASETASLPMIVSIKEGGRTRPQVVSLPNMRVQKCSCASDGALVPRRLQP
- procedure_details: small molecules binding LEFTY2 protein – biochemical, small-molecule microarray, 635 nm fluorescence scan, primary screen (AID 1110)
- setup_conditions: higher = more signal
Give measured composite z-score for each item. Keep answers brief.
Answers are plain numbers.

Would you please look over these solved cases?
CCOC(=O)C[C@H]1[C@H](OC(=O)Cc2ccc3c(c2)OCO3)[C@@H](NC(=O)c2ccccc2)c2cc(OCCCO)ccc2N1C(=O)c1ccccc1 :: 0.24
CC(C)CNC(=O)[C@@]1(c2ccc([N+](=O)[O-])cc2)CC(=O)N(C(C)C)[C@@H]1c1ccc(CO)cc1 :: -1.53
[N-]=[N+]=NCc1ccccc1[C@H]1OC(c2ccc(OCCCO)cc2)=N[C@@]1(Cc1ccccc1N=[N+]=[N-])C(=O)N1CCCCC1 :: 0.291
COc1ccc([Si](C)(C)[C@H]2[C@H](CC(=O)N3CCC[C@H]3CO)O[C@@]3(C(=O)N(Cc4ccc(N5C(=O)c6cccc7cccc5c67)cc4)c4ccccc43)[C@@H]2C)cc1 :: 0.758
COCC(=C=CC[C@@H](O)c1ccccc1OCCO)C[C@@H](O)c1ccccn1 :: 0.289

Can you give me composite z-score for all of these, one by one?
1. O=C(O)[C@@]1(Cc2ccccc2)COC(c2ccc(OCCCO)cc2)=N1
2. O=C(N1CCOCC1)[C@@]1(CCS(=O)(=O)c2ccccc2)COC(c2ccc(OCCCO)cc2)=N1

1: -0.714; 2: -1.21

* * *

- subject_of_test: E3 ubiquitin-protein ligase XIAP (Homo sapiens) (UniProt P98170)
- Sequence (P98170 whole entry, looked up): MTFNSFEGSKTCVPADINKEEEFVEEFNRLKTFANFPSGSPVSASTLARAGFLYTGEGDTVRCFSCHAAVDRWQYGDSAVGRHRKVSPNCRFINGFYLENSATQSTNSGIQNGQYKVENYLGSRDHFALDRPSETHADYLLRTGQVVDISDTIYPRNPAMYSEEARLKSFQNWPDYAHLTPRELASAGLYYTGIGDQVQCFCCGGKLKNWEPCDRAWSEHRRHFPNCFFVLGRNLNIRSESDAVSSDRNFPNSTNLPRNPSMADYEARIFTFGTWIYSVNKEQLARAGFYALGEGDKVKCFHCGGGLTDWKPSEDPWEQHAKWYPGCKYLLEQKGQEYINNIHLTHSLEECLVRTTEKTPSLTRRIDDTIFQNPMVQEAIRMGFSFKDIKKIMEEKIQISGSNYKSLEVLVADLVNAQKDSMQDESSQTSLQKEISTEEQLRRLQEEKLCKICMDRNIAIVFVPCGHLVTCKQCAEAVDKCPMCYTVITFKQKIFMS
- procedure_details: small molecules binding XIAP protein – biophysical, small-molecule microarray, fluorescence 635 nm, primary screen (AID 1181);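 note: score merges 667 nm emission and signal to noise over triplicate slides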
- setup_conditions: higher = more signal
property: composite z-score
Give bare numbers.

Would you please look over these solved cases?
COCCOC(=O)N1C(=O)[C@@]2(c3cc(C#CCCO)ccc31)[C@H](C(=O)N1CCc3cc(OC)c(OC)cc3C1)[C@H]1C(=O)O[C@H](c3ccccc3)[C@H](c3ccccc3)N1[C@@H]2c1ccc(OCCO)cc1 :: -0.0412
COCCOC(=O)N1C(=O)[C@@]2(c3cc(C#Cc4ccc(OC)cc4)ccc31)[C@H](C(=O)N1CCc3cc(OC)c(OC)cc3C1)[C@H]1C(=O)O[C@H](c3ccccc3)[C@H](c3ccccc3)N1[C@@H]2c1ccc(OCCO)cc1 :: 0.365

Can you give me composite z-score for all of these, one by one?
1. C=C(/C(=C/C[C@@H](OC(C)=O)c1ccccc1OCCO)c1cnc2ccccc2c1)C(C)C
2. COC(=O)C(CC#Cc1ccc2c(c1)[C@]1(C(=O)N2)[C@H](c2ccc(O)cc2)N2[C@H](c3ccccc3)[C@H](c3ccccc3)OC(=O)[C@H]2[C@@H]1C(N)=O)C(=O)OC
3. COc1ccc(CCNC(=O)[C@@H]2c3ccccc3C(=O)N(Cc3ccccc3C(F)(F)F)[C@H]2c2ccc(CO)cc2)cc1
4. COc1ccc(C(=O)Nc2ccc3c(c2)[C@]2(O[C@@H](CCO)[C@H]([Si](C)(C)c4ccc(OC)cc4)[C@H]2C)C(=O)N3Cc2ccccc2)cc1

1. -0.102
2. 0.153
3. 0.0819
4. -0.165

Can you give me composite z-score for all of these, one by one?
1. CCC[C@@H]1C[C@@]1(CCC)[C@@H](NC(=O)c1ccco1)c1ccc(Cl)cc1
2. COCCCNC(=O)[C@]1(Cc2ccccc2)N=C(c2ccc(OCCCO)cc2)O[C@@H]1c1ccccc1N=[N+]=[N-]
3. CC(C)CCC[C@@H](C)[C@H]1CC[C@@]2(C)C3=C(CC[C@]12C)[C@@]1(C)CC[C@H](OC(=O)C(C)(C)C)C(C)(C)C1CC3 (stereo partly drawn)
4. O=C1O[C@@H](c2ccccc2)[C@@H](c2ccccc2)N2[C@@H](c3ccc(O)cc3)[C@]3(C(=O)Nc4ccc(C#CC5=CCCCC5)cc43)[C@@H](C(=O)Nc3nc4ccccc4s3)[C@H]12
5. COc1ccccc1CN1C(=O)c2ccccc2[C@](Cc2ccccc2I)(C(=O)NCCN2CCOCC2)[C@@H]1c1ccc(CO)cc1

1: -0.683; 2: -0.02; 3: 0.0356; 4: -0.0925; 5: -0.108

Can you give me composite z-score for all of these, one by one?
1. [N-]=[N+]=NCc1ccccc1[C@H]1OC(c2ccc(OCCCO)cc2)=N[C@@]1(Cc1ccccc1)C(N)=O
2. COC(=O)[C@@]1(Cc2ccc(OC)cc2)[C@H]2c3cc(C(=O)N4CCCC4)n(Cc4ccc(C)o4)c3C[C@H]2CN1C(=O)c1ccccc1
3. C=C(C)[C@@H]1CC=C(C(O)C2C=CC3C(=O)N(C4CCCCC4)C(=O)C3N2Nc2ccc(OC)cc2)CC1 (stereo partly drawn)
4. COC(=O)[C@@]1(Cc2ccccc2)[C@H]2c3cc(C(=O)N(C)C)n(Cc4ccc(O)c(OC)c4)c3C[C@H]2CN1C(=O)c1ccccc1
5. C=CCOc1ccc([C@@H]2CC=C(C(=O)OCC)[C@H](c3cccc(Br)c3)N2S(=O)(=O)c2ccc(C)cc2)cc1
6. C[C@]12C(=O)N(CCCCCO)[C@@H]3C(=O)N(c4ccc(Cl)cc4)CC=CC31O[C@@H]1/C=C\CCCOC(=O)C12 (stereo partly drawn)
7. COC(=O)[C@]1(Cc2ccccc2CN=[N+]=[N-])N=C(c2ccc(OCCCO)cc2)O[C@@H]1c1ccccc1CN=[N+]=[N-]
8. CN(C)C(=O)[C@@]1(CCC(=O)OC(C)(C)C)N=C(c2ccc(OCCCO)cc2)O[C@H]1c1ccccc1N=[N+]=[N-]

1. -0.124
2. 0.402
3. 0.356
4. 0.0422
5. -0.258
6. 0.234
7. -0.0025
8. 0.0428

Can you give me composite z-score for all of these, one by one?
1. C[N+](C)(C)CCCC[C@@H]1NC(=O)[C@@H]2C[C@H](C(=O)NCCCCCNC(=O)CS)[C@H](c3cccc(OCCO)c3)N2C1=O
2. CN(C)C(=O)[C@@]1(Cc2ccccc2N=[N+]=[N-])N=C(c2ccc(OCCCO)cc2)O[C@H]1c1ccccc1N=[N+]=[N-]
3. O=C1O[C@H](c2ccccc2)[C@H](c2ccccc2)N2[C@H]1[C@@H](C(=O)N1CCCCCCC1)[C@]1(C(=O)Nc3ccc(C#CCCO)cc31)[C@H]2c1ccc(OCCO)cc1
4. CCC[C@@H]1C[C@@]1(CCC)[C@@H](NC(=O)c1cccs1)c1ccc(Cl)cc1
5. CCOC(=O)C1=CC[C@@H](c2ccccc2)N(S(=O)(=O)c2ccc(C)cc2)[C@H]1C=C(C)C

-0.0562
1.98
2.52
-0.193
0.394
